- Target Desc: GPR139 (Homo sapiens)
- Sequence (Q6DWJ6 whole entry): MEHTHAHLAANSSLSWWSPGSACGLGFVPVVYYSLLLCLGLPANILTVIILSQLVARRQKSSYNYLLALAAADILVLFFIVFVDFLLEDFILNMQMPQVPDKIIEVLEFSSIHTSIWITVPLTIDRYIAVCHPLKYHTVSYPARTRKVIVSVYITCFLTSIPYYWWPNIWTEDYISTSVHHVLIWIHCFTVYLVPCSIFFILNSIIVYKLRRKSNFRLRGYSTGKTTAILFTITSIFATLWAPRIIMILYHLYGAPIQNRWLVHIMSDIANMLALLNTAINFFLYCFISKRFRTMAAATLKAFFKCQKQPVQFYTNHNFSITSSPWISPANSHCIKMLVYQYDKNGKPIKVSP
- Assay Text: GPR139 Agonist titration / agonist counterscreen assay (calcium detection, HEK-GPR139 cells)
- Type: cell-based
- Design: expressed in transfected cells; host or cells: HEK Aequorin cells, Maxcyte transient transfection
- Settings: GPR139 Agonist Activity; values printed in E-notation without unit; read-out: EC50
Quantity Name: pEC50
One number for each entry, as −log10 of the molar value.

Provide the documented pEC50 with GPR139 (Homo sapiens) as the system for CC1CCCC(NC(=O)CN2CCCN(Cc3ccc(F)cc3Cl)C2=O)C1C (centres unmarked)
7.53

For every listed record, write down its pEC50.
1. CC1=NNC(=O)C1CC(=O)N/N=C/c1cccc2ccccc12 (centres unmarked)
2. Cc1cccc(OCC(=O)NNC(=O)C(C)Oc2ccc(Cl)cc2Cl)c1 (centres unmarked)
3. COc1ccc(CCNC(=O)Nc2ccc(C)cc2)cc1
4. Cc1ccc(C(=O)NNC(=O)CSc2nnc(Cn3cnc4ccccc43)o2)cc1
5. CN1CC[C@H](Oc2cc(-c3cn[nH]c3)ccc2NC(=O)N(Cc2ccccc2)C2CC2)C1.O=C(O)C(F)(F)F.O=C(O)C(F)(F)F
6. CC12C=CC3(CN(Cc4ccccc4)C(=O)C3C1C(=O)NCc1ccco1)O2 (centres unmarked)

6.62
6.99
6.59
7.32
6.92
6.64

Provide the documented pEC50 with GPR139 (Homo sapiens) as the system for `O=C(Cn1ncc2c(Cl)cccc21)NCCc1ccc(Cl)cc1`
6.60
